protocol.summary: Triton test (hypocholesterolemic action)
Format: in vivo, rat
experimental.context: 100 mg/kg oral, rat, 18 hours after Triton
Counter-ions that a name gives are not always drawn.
Let's look at some compounds and their measured reduction of free cholesterol and of total cholesterol.
measured.metric: reduction of free cholesterol and of total cholesterol

> print(dat)
                                   compound  result
1           CCN(CC)CC=C1CN=C(N2CCN(C)CC2)S1    ~26%
2             CCN(CC)CC=C1CN=C(NC2CCCCC2)S1    ~28%
3  CCCCNc1ncc(CCN(CC)CC)s1 [Derivative No. 9, dihydrochloride]    ~24%
4               CCN(CC)CC=C1CN=C(N(CC)CC)S1    ~22%

----------
System: carrageenin-induced oedema
protocol.summary: Localised carrageenin-induced oedema method (anti-inflammatory action)
Format: in vivo, rat
experimental.context: 100 mg/kg oral per administration, rat, 1 hour after carrageenin
measured.metric: percentage of anti-inflammatory activity, First Hour (%)

> print(dat)
                                   molecule  unit.of.measurement  quantitative.readout
1  CCN(CC)CC=C1CN=C(NCC(O)c2ccccc2)S1 (stereo not shown)                    %                    39
2         CCN(CC)CC=C1CN=C(N(CC)C2CCCCC2)S1                    %                    44
3            CCN(CC)CCc1cnc(N(C)C2CCCCC2)s1                    %                    42
4  CCN(CC)CCC1CN=C(NC2CCCCC2)S1 (stereo not shown)                    %                    37
